subject_of_test: HCV E1E2 complex, isolate H77 (genotype 1a) (hepatitis C virus genotype 1a, isolate …, UniProt P27958 192-383; P27958 384-746)
protocol_notes: Fab ELISA on unmasked E1E2
property_label: binding result

binder	measured
Fab U1 (Fab, V domains shown) VH: VQLLEQSGPEVKRPGTSVKMSCKISGGASITQAMSWVRQAPGQGLEWMGGITPIFGTVNYAQKILGRVTITADEDTVSLELSSLKSEDTAVYYCAREVNLKTWNLAHPNVFDVWGQGTMLTVSS VL: ELTQSPSSLSASVGDRVTITCRASQSISSFLNWYQQKPGKAPKLLIYAASSLQSGVPPRFSGSGSGTDFTLTISSLQPEDFATYYCQQSYSTPRTFGQGTKLEIKR	binds
Fab N1 (Fab, V domains shown, Soluble Fab) VH: VQLLEQSGPEVKKPGDSLRISCKMSGDSLVTTWIGWVRQKPGQGLEWMGIINPGDSSTNIYPGDSATRYGPSFQGQVTISIDKSTSTAYLQWNAVKPSDTGIYYCARHVPVPISGTFLWREREMHDFGYFDDWGQGTLVIVSS VL: ELTQSPGTLSLSPGERATLSCRASQSVSSSYLAWYQQKPGQAPRLLIYGASNRAAGIPDRFSGSGSGADFTLTISRLEPEDFAVYYCQQYGSSLITFGQGTRLEIKR	binds
Fab N2 (Fab, V domains shown, Soluble Fab) VH: VQLLEQSGPEVKKPGDSLRISCKMSGDSLVTTWIGWVRQKPGQGLEWMGIINPGDSSTNIYPGDSATRYGPSFQGQVTISIDKSTSTAYLQWNTVKPSDTGIYYCARHVPVPISGTFLWREREMHDFGYFDDWGQGTLVIVSS VL: ELTQSPGTLSLFPGERATLSCRASQSILGRYLAWYQQKGGRAPRLLIFGASKRATGIPDRFSGSGSGTDFTLTIGRLEPEDFAVYYCQHYGSSITFGQGTRLDIKR	binds
Fab O1 (Fab, V domains shown, Soluble Fab) VH: VQLLEQSGAEVKKAGESVRLSCKASGYRFGDYWIAWVRQLPGRAPEWMGIIYPDDSDTKYSPSFQGQVTISADKSIRTTFLDWGSLKASDTAIYYCARGCLGAKCYYPHYYYGLDVWGQGTTVIVSS VL: ELTQSPSSLSASVGDRVTITCRATQGIDNYLNWYQQKPGKPPRLLIYGASSLQSGVPSRFSGGGSGTHFTLTITNLQPEDFATYYCQQSYSTPPETFGQGTKVEIKR	binds
